Molecular target: UniProtKB P07550
READOUT LABEL: IC50

{"CPD SMILES": "COc1cc(CNC[C@H](O)c2ccc(O)c3[nH]c(=O)ccc23)ccc1C(=O)NCC(=O)N1CC=C(c2cccc([C@](O)(C(=O)OCC3CCN(Cc4ccccc4)CC3)c3ccccc3)c2)CC1", "MEAS VALUE": "< 0.3 nM"}
{"CPD SMILES": "O=C(NCc1ccc(-c2cccc([C@](O)(C(=O)OCC3CCN(Cc4ccccc4)CC3)c3ccccc3)c2)s1)c1ccc(CNC[C@H](O)c2ccc(O)c3[nH]c(=O)ccc23)cc1F", "MEAS VALUE": "< 0.3 nM"}
{"CPD SMILES": "COc1cc(C(=O)NCc2cncc(-c3cccc([C@](O)(C(=O)OCC4CCN(Cc5ccccc5)CC4)c4ccccc4)c3)n2)ccc1CNC[C@H](O)c1ccc(O)c2[nH]c(=O)ccc12", "MEAS VALUE": "< 0.3 nM"}

====

Molecular target: Human M3 receptor (Homo sapiens, UniProt P20309)
Construct: purchased Perkin Elmer
Sequence (P20309 whole entry): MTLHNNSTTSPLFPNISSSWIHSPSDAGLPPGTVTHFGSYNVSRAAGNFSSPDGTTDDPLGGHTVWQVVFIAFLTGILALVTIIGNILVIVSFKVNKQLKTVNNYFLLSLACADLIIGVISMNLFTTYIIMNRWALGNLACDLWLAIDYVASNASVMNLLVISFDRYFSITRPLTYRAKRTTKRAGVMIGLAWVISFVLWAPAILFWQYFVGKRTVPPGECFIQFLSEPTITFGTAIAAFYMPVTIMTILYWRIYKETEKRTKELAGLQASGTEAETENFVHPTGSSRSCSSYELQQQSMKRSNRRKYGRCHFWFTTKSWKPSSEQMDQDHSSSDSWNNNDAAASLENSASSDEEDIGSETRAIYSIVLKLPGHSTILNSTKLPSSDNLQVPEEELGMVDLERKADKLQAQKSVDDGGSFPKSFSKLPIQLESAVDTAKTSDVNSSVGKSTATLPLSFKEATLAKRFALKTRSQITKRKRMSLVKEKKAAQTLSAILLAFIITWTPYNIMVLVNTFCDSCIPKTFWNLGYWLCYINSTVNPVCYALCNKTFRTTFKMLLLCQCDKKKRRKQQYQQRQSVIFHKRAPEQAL
Test: biochemical
Type: binding
Conditions: read-out: M3 Range

{"MOLECULE": "COc1cc(C(=O)N2CC=C(c3cccc([C@](O)(C(=O)OCC4CCN(Cc5ccccc5)CC4)c4ccccc4)c3)CC2)ccc1CNC[C@H](O)c1ccc(O)c2[nH]c(=O)ccc12", "SYSTEM UNDER TEST": "Human M3 receptor (Homo sapiens, UniProt P20309)", "IC50": "< 0.3 nM"}
{"MOLECULE": "O=C(NCc1ccc(-c2cccc([C@](O)(C(=O)OCC3CCN(Cc4ccccc4)CC3)c3ccccc3)c2)s1)c1ccc(CNC[C@H](O)c2ccc(O)c3[nH]c(=O)ccc23)s1", "SYSTEM UNDER TEST": "Human M3 receptor (Homo sapiens, UniProt P20309)", "IC50": "0.3 to 3 nM"}
{"MOLECULE": "O=C(NCc1csc(-c2cccc([C@](O)(C(=O)OCC3CCN(Cc4ccccc4)CC3)c3ccccc3)c2)c1)c1ccc(CNC[C@H](O)c2ccc(O)c3[nH]c(=O)ccc23)cc1", "SYSTEM UNDER TEST": "Human M3 receptor (Homo sapiens, UniProt P20309)", "IC50": "0.3 to 3 nM"}
{"MOLECULE": "O=C(NCc1ccc(-c2cccc([C@](O)(C(=O)OCC3CCN(Cc4ccccc4)CC3)c3ccccc3)c2)s1)c1c(F)cc(CNC[C@H](O)c2ccc(O)c3[nH]c(=O)ccc23)cc1Cl", "SYSTEM UNDER TEST": "Human M3 receptor (Homo sapiens, UniProt P20309)", "IC50": "0.3 to 3 nM"}
{"MOLECULE": "COc1cc(CNC[C@H](O)c2ccc(O)c3[nH]c(=O)ccc23)ccc1C(=O)NCC(=O)N1CC=C(c2cccc([C@](O)(C(=O)OCC3CCN(Cc4ccccc4)CC3)c3ccccc3)c2)CC1", "SYSTEM UNDER TEST": "Human M3 receptor (Homo sapiens, UniProt P20309)", "IC50": "0.3 to 3 nM"}
{"MOLECULE": "O=C(NCc1ccc(-c2cccc([C@](O)(C(=O)OCC3CCN(Cc4ccccc4)CC3)c3ccccc3)c2)s1)c1ccc(CNC[C@H](O)c2ccc(O)c3[nH]c(=O)ccc23)c(Cl)c1", "SYSTEM UNDER TEST": "Human M3 receptor (Homo sapiens, UniProt P20309)", "IC50": "> 3 nM"}
{"MOLECULE": "O=C(c1ccc(CNC[C@H](O)c2ccc(O)c3[nH]c(=O)ccc23)cc1)N1CCc2sc(-c3cccc([C@](O)(C(=O)OCC4CCN(Cc5ccccc5)CC4)c4ccccc4)c3)cc2C1", "SYSTEM UNDER TEST": "Human M3 receptor (Homo sapiens, UniProt P20309)", "IC50": "0.3 to 3 nM"}
{"MOLECULE": "O=C(NCc1ccc(-c2cccc([C@](O)(C(=O)OCC3CCN(Cc4ccccc4)CC3)c3ccccc3)c2)s1)c1ccc(CNC[C@H](O)c2ccc(O)c3[nH]c(=O)ccc23)cc1F", "SYSTEM UNDER TEST": "Human M3 receptor (Homo sapiens, UniProt P20309)", "IC50": "0.3 to 3 nM"}
{"MOLECULE": "O=C(NCc1cc(-c2ccc([C@](O)(C(=O)OCC3CCN(Cc4ccccc4)CC3)c3ccccc3)cc2)cs1)c1ccc(CNC[C@H](O)c2ccc(O)c3[nH]c(=O)ccc23)cc1 [Compound 15B]", "SYSTEM UNDER TEST": "Human M3 receptor (Homo sapiens, UniProt P20309)", "IC50": "> 3 nM"}
{"MOLECULE": "O=C(NCc1ncc(-c2cccc([C@](O)(C(=O)OCC3CCN(Cc4ccccc4)CC3)c3ccccc3)c2)cn1)c1ccc(CNC[C@H](O)c2ccc(O)c3[nH]c(=O)ccc23)cc1", "SYSTEM UNDER TEST": "Human M3 receptor (Homo sapiens, UniProt P20309)", "IC50": "0.3 to 3 nM"}

====

// Human β2 adrenoceptor (Homo sapiens, UniProt P07550) IC50 records
READOUT LABEL: IC50

{"CPD SMILES": "CN1CCC(COC(=O)[C@](O)(c2ccccc2)c2cccc(-c3ccc(CNC(=O)c4ccc(CNC[C@H](O)c5ccc(O)c6[nH]c(=O)ccc56)cc4)s3)c2)CC1", "SYSTEM UNDER TEST": "Human β2 adrenoceptor (Homo sapiens, UniProt P07550)", "MEAS VALUE": "< 0.3 nM"}
{"CPD SMILES": "CN(CC(=O)N1CC=C(c2cccc([C@](O)(C(=O)OCC3CCN(Cc4ccccc4)CC3)c3ccccc3)c2)CC1)C(=O)c1ccc(CNC[C@H](O)c2ccc(O)c3[nH]c(=O)ccc23)cc1", "SYSTEM UNDER TEST": "Human β2 adrenoceptor (Homo sapiens, UniProt P07550)", "MEAS VALUE": "0.3 to 3 nM"}
{"CPD SMILES": "O=C(c1cccc(-c2cccc([C@](O)(C(=O)OCC3CCN(Cc4ccccc4)CC3)c3ccccc3)c2)n1)N1CCC(CNC[C@H](O)c2ccc(O)c3[nH]c(=O)ccc23)CC1", "SYSTEM UNDER TEST": "Human β2 adrenoceptor (Homo sapiens, UniProt P07550)", "MEAS VALUE": "0.3 to 3 nM"}

====

Examples of compounds with documented pIC50 follow.
Target: Human M3 receptor (Homo sapiens)
Construct: purchased Perkin Elmer
Assay: biochemical
Assay type: binding
Details: read-out: M3 Range
pIC50: −log10 of the molar value.

{"COMPOUND": "O=C(NCc1ccc(-c2cccc([C@](O)(C(=O)OCC3CCN(Cc4ccccc4)CC3)c3ccccc3)c2)s1)c1ccc(CNC[C@H](O)c2ccc(O)c3[nH]c(=O)ccc23)c(F)c1F", "SYSTEM UNDER TEST": "Human M3 receptor (Homo sapiens)", "pIC50": "8.52 to 9.52"}
{"COMPOUND": "COc1c(CNC[C@H](O)c2ccc(O)c3[nH]c(=O)ccc23)ccc(C(=O)NCc2ccc(-c3cccc([C@](O)(C(=O)OCC4CCN(Cc5ccccc5)CC4)c4ccccc4)c3)s2)c1F", "SYSTEM UNDER TEST": "Human M3 receptor (Homo sapiens)", "pIC50": "8.52 to 9.52"}
{"COMPOUND": "O=C(NCc1ccc(-c2cccc([C@](O)(C(=O)OCC3CCN(Cc4ccccc4)CC3)c3ccccc3)c2)s1)c1ccc(CNC[C@H](O)c2ccc(O)c3[nH]c(=O)ccc23)nc1", "SYSTEM UNDER TEST": "Human M3 receptor (Homo sapiens)", "pIC50": "8.52 to 9.52"}
{"COMPOUND": "O=C(c1cc(-c2cccc([C@](O)(C(=O)OCC3CCN(Cc4ccccc4)CC3)c3ccccc3)c2)ccn1)N1CCC(CNC[C@H](O)c2ccc(O)c3[nH]c(=O)ccc23)CC1", "SYSTEM UNDER TEST": "Human M3 receptor (Homo sapiens)", "pIC50": "8.52 to 9.52"}
{"COMPOUND": "COc1cc(C(=O)NCc2ccc(-c3cccc([C@](O)(C(=O)OCC4CCN(Cc5ccccc5)CC4)c4ccccc4)c3)s2)ccc1CNC[C@H](O)c1ccc(O)c2[nH]c(=O)ccc12", "SYSTEM UNDER TEST": "Human M3 receptor (Homo sapiens)", "pIC50": "8.52 to 9.52"}
{"COMPOUND": "C[C@@H](OC(=O)[C@](O)(c1ccccc1)c1cccc(-c2ccc(CNC(=O)c3ccc(CNC[C@H](O)c4ccc(O)c5[nH]c(=O)ccc45)cc3)s2)c1)C1CCN(Cc2ccccc2)CC1", "SYSTEM UNDER TEST": "Human M3 receptor (Homo sapiens)", "pIC50": "8.52 to 9.52"}
{"COMPOUND": "O=C(Cc1ccc(CNC[C@H](O)c2ccc(O)c3[nH]c(=O)ccc23)cc1)NCc1ccc(-c2cccc([C@](O)(C(=O)OCC3CCN(Cc4ccccc4)CC3)c3ccccc3)c2)s1", "SYSTEM UNDER TEST": "Human M3 receptor (Homo sapiens)", "pIC50": "8.52 to 9.52"}
{"COMPOUND": "O=C(NCc1ccnc(-c2cccc([C@](O)(C(=O)OCC3CCN(Cc4ccccc4)CC3)c3ccccc3)c2)n1)c1ccc(CNC[C@H](O)c2ccc(O)c3[nH]c(=O)ccc23)cc1", "SYSTEM UNDER TEST": "Human M3 receptor (Homo sapiens)", "pIC50": "8.52 to 9.52"}
{"COMPOUND": "COc1cc(CNC[C@H](O)c2ccc(O)c3[nH]c(=O)ccc23)ccc1C(=O)NCc1ccc(-c2cccc([C@](O)(C(=O)OCC3CCN(Cc4ccccc4)CC3)c3ccccc3)c2)s1", "SYSTEM UNDER TEST": "Human M3 receptor (Homo sapiens)", "pIC50": "8.52 to 9.52"}
{"COMPOUND": "COc1cc(C(=O)NCc2ccc(-c3ccc([C@](O)(C(=O)OCC4CCN(Cc5ccccc5)CC4)c4ccccc4)cc3)s2)ccc1CNC[C@H](O)c1ccc(O)c2[nH]c(=O)ccc12 [Compound 15A]", "SYSTEM UNDER TEST": "Human M3 receptor (Homo sapiens)", "pIC50": "8.52 to 9.52"}
